- Tested on: SK-MEL-2
- METHOD SUMMARY: NCI tumour cell line growth inhibition, 48 h
Active and inactive are the calls of the source. Cut-off read from the data, not from the text of the source: active = GI50 up to about 1.1 µM and inactive = higher.
GI50 listing for selected compounds.

[
  {
    "COMPOUND": "Cc1ccc(S(=O)(=O)N/N=C(\\c2nc3ccc([N+](=O)[O-])cc3[nH]c2=O)C(O)c2ccc([N+](=O)[O-])cc2)cc1 (stereo not given)",
    "GI50": "> 100 µM (inactive)"
  },
  {
    "COMPOUND": "CCOC(=O)CCc1ccc(NC(=O)/C=C/c2ccc([N+](=O)[O-])o2)cc1",
    "GI50": "2.06 µM (inactive)"
  },
  {
    "COMPOUND": "O=C(O)/C=C\\C(=O)Nc1ccc2c(c1)C(=O)c1cc(F)ccc1-2",
    "GI50": "> 100 µM (inactive)"
  },
  {
    "COMPOUND": "O=[N+]([O-])c1ccc(/N=N\\c2c(O)c(S(=O)(=O)O)cc3cc(S(=O)(=O)O)ccc23)cc1",
    "GI50": "> 100 µM (inactive)"
  },
  {
    "COMPOUND": "CNC(=O)OCc1nc(N=[N+]=[N-])n(C)c1COC(=O)NC",
    "GI50": "26.7 µM (inactive)"
  },
  {
    "COMPOUND": "COc1ccc(C(CC(=O)c2ccc(O)cc2)C(C(=O)c2ccc(O)cc2)C(c2ccc(OC)cc2)C2C(=O)NC(=S)NC2=O)cc1 (stereo not given)",
    "GI50": "29.8 µM (inactive)"
  },
  {
    "COMPOUND": "COCCO",
    "GI50": "> 100 µM (inactive)"
  },
  {
    "COMPOUND": "COc1ccc(N2C(=O)C3c4[nH]c5ccc(OCc6ccccc6)cc5c4C4CCC(C(C)C)CC4C3C2=O)cc1 (stereo not given)",
    "GI50": "15.2 µM (inactive)"
  },
  {
    "COMPOUND": "O=c1oc2ccccc2cc1-c1csc(Nc2cc(Cl)cc(Cl)c2)n1",
    "GI50": "> 100 µM (inactive)"
  },
  {
    "COMPOUND": "O=C(Cn1c(-c2ccccc2)cc2ccccc21)N1CCCC1",
    "GI50": "> 100 µM (inactive)"
  },
  {
    "COMPOUND": "CN(C)C1(N(C)C)Oc2c(c(=O)n(C)c(=O)n2C)C(c2ccccc2)C1(F)F (stereo not given)",
    "GI50": "> 100 µM (inactive)"
  },
  {
    "COMPOUND": "O=C(O)c1cc(-c2ccc3cc4c(cc3c2)OCO4)nc2ccccc12",
    "GI50": "62.7 µM (inactive)"
  },
  {
    "COMPOUND": "CC(=O)NC(CCCCNC(=O)N(C)N=O)C(=O)NCc1ccccc1 (stereo not given)",
    "GI50": "> 100 µM (inactive)"
  },
  {
    "COMPOUND": "N#Cc1c(-c2cccc(Br)c2)cc(-c2ccc(Cl)cc2)nc1N",
    "GI50": "11.6 µM (inactive)"
  },
  {
    "COMPOUND": "ClCCCSSCCCCl",
    "GI50": "40.2 µM (inactive)"
  },
  {
    "COMPOUND": "COc1ccc(-c2c(N)n(-c3nc4ccccc4s3)c(=O)c3cc([N+](=O)[O-])ccc23)cc1",
    "GI50": "25.4 µM (inactive)"
  },
  {
    "COMPOUND": "CC1CC[C@@H](C(C)C)[C@H](Oc2nnc(C3OC(CO)C(O)C3O)o2)C1 (stereo not given in full)",
    "GI50": "> 100 µM (inactive)"
  },
  {
    "COMPOUND": "CCN1CCC(O)(/C=C/c2ccc(C)cc2)C(C(=O)/C=C/c2ccc(C)cc2)C1 (stereo not given)",
    "GI50": "3.75 µM (inactive)"
  },
  {
    "COMPOUND": "CCN(CC)CCNC(=O)c1cc2cc(NC(=O)c3cc4cc([N+](=O)[O-])ccc4[nH]3)ccc2[nH]1",
    "GI50": "> 52.6 µM (inactive)"
  },
  {
    "COMPOUND": "C=C1C(=O)C23C(O)CC4C(C)(C)CCC(O)C4(C)C2CC(OC(C)=O)C1[C@H]3O (stereo not given in full)",
    "GI50": "2.55 µM (inactive)"
  }
]

Reference source for all entries: ChEMBL document CHEMBL1201862
